tested on: Liver; experiment: Metabolic stability in human liver microsomes assessed as compound remaining at 10 uM after 1 hr by LC-MS/MS analysis; format: ADME, microsome
Quantity Kind: Stability (%)
One number for each entry, in %.

Sample records with Stability:
# Compound Smiles, Tested System, Stability [%]
data = [
    ("[2H]C([2H])([2H])Oc1ccc2c(c1)C(=O)N1CCC[C@H]1c1c(C(=O)NC(C)(C)C)ncn1-2", "Liver", 95.6),
    ("[2H]C([2H])([2H])Oc1ccc2c(c1)C(=O)N1CCC[C@H]1c1c(C(=O)OC(C)(C)C)ncn1-2", "Liver", 91.9),
    ("CCNC(=O)c1ncn2c1[C@@H]1CCCN1C(=O)c1cc(OC)ccc1-2", "Liver", 90.7),
    ("COc1ccc2c(c1)C(=O)N1CCC[C@H]1c1c(C(=O)NC3CC3)ncn1-2", "Liver", 79.9),
    ("[2H]C([2H])([2H])Oc1ccc2c(c1)C(=O)N1CCC[C@H]1c1c(C(=O)NCC)ncn1-2", "Liver", 93.5),
    ("[2H]C([2H])([2H])Oc1ccc2c(c1)C(=O)N1CCC[C@H]1c1c(C(=O)N(C)C)ncn1-2", "Liver", 96.3),
]

Below is a list of molecules. For each, state its recorded Stability.
1. COc1ccc2c(c1)C(=O)N1CCC[C@H]1c1c(C(=O)OCC(C)C)ncn1-2
2. COc1ccc2c(c1)C(=O)N1CCC[C@H]1c1c(C(=O)NC(C)(C)C)ncn1-2
3. COC(=O)c1ncn2c1[C@@H]1CCCN1C(=O)c1cc(OC)ccc1-2
4. CCOC(=O)c1ncn2c1[C@@H]1CCCN1C(=O)c1cc(OC)ccc1-2

## Result
[77.8, 92.8, 89.7, 99.1]

Please state Stability for every molecule in the list that follows.
1. [2H]C([2H])([2H])Oc1ccc2c(c1)C(=O)N1CCC[C@H]1c1c(C(=O)OC)ncn1-2
2. CNC(=O)c1ncn2c1[C@@H]1CCCN1C(=O)c1cc(OC)ccc1-2

## Result
[92.9, 93.8]

Give one value of Stability per listed molecule.
1. COc1ccc2c(c1)C(=O)N1CCC[C@H]1c1c(C(=O)OC(C)(C)C)ncn1-2
2. COc1ccc2c(c1)C(=O)N1CCC[C@H]1c1c(C(=O)N(C)C)ncn1-2
3. [2H]C([2H])([2H])Oc1ccc2c(c1)C(=O)N1CCC[C@H]1c1c(C(=O)OCC)ncn1-2
4. [2H]C([2H])([2H])Oc1ccc2c(c1)C(=O)N1CCC[C@H]1c1c(C(=O)NC)ncn1-2
5. [2H]C([2H])([2H])Oc1ccc2c(c1)C(=O)N1CCC[C@H]1c1c(C(=O)OCC(C)C)ncn1-2
6. CC(C)(C)OC(=O)c1ncn2c1[C@@H]1CCCN1C(=O)c1cc(O)ccc1-2

## Result
1: 92.1; 2: 92.4; 3: 92.8; 4: 94.9; 5: 78.7; 6: 90.6

----------
experiment: Tmax in mouse brain at 5 mg/kg, ip by LC/MS/MS analysis; assay type: ADME, organism-based
Quantity Kind: Tmax (min)
One number for each entry, in min.

## Task Given the compound COc1ccc2c(c1)C(=O)N1CCC[C@H]1c1c(C(=O)N(C)C)ncn1-2 , what is its reported Tmax?
## Result 10
